Listed next: entries and their corresponding Photosensitizing effect % growth inhibition, Dark.
System: Leishmania tropica kwh 23 promastigotes
Test: Photosensitizing effect against leishmania
Assay type: cell-based
Settings: 0.092 μg/mL

In [3]: df
Out[3]:
                               input_smiles  measured_result
0  CCC[CH2][Sn]([CH2]CCC)([CH2]CCC)[O]C(=O)/C=C\C(=O)Nc1ccc(C(=O)OCC)cc1     51.5 ± 1.35%

Turning now to a further compound:
Reported Photosensitizing effect % growth inhibition, Dark of "CCC[CH2][Sn]([CH2]CCC)([CH2]CCC)[O]C(=O)/C=C\C(=O)Nc1ccccc1" : 36.7 ± 0.74%

----------
Test system: Streptomyces 85E
Experiment: Protein kinase inhibition assay (Streptomyces disc assay)
Type: cell-based
Details: 6.25 μg/disc; (-) shows no ZOI
observable: ZOI CZ (clear zone) (mm)
Hi! Could you send only the number? It should be in mm, unit omitted.

// below: answered molecules
In [3]: df
Out[3]:
                               input_smiles           observable  measured_result
0  CCC[CH2][Sn]([CH2]CCC)([CH2]CCC)[O]C(=O)/C=C\C(=O)Nc1ccccc1  ZOI CZ (clear zone)               12
1  CCC[CH2][Sn]([CH2]CCC)([CH2]CCC)[O]C(=O)/C=C\C(=O)NC1CCCCC1  ZOI CZ (clear zone)               10
2  CCC[CH2][Sn]([CH2]CCC)([CH2]CCC)[O]C(=O)/C=C\C(=O)Nc1ccc(C(=O)OCC)cc1  ZOI CZ (clear zone)               10

Turning now to a further molecule:
ZOI CZ (clear zone) for Streptomyces 85E with input "CCC[CH2][Sn]([CH2]CCC)([CH2]CCC)[O]C(=O)COc1ccc(OCC(=O)[O][Sn]([CH2]CCC)([CH2]CCC)[CH2]CCC)cc1" equals 12

----------
Tested on: Leishmania tropica kwh 23 promastigotes
Test: Photosensitizing effect against leishmania
Type: cell-based
Conditions: 0.092 μg/mL
Listed next: entries and their corresponding Photosensitizing effect % growth inhibition, Dark.
I'd appreciate it if you wrote the number followed by its unit.

// below: answered compounds
>>> df
                               input_smiles                             assay_system  measured_result
0  CCC[CH2][Sn]([CH2]CCC)([CH2]CCC)[O]C(=O)c1ccccc1C(=O)Nc1cccc2ccccc12  Leishmania tropica kwh 23 promastigotes    26.34 ± 0.15%
1  CCC[CH2][Sn]([CH2]CCC)([CH2]CCC)[O]C(=O)/C=C\C(=O)NC1CCCCC1  Leishmania tropica kwh 23 promastigotes    44.18 ± 1.16%

Turning now to a further compound:
Reported Photosensitizing effect % growth inhibition, Dark of "CCC[CH2][Sn]([CH2]CCC)([CH2]CCC)[O]C(=O)/C=C\C(=O)Nc1cccc(C)c1C" : 22.7 ± 1.05%
